ASSAY OVERVIEW: Drug related lethality is percent animals in treated groups dying prior to first tumor related death in untreated groups measured in BDF1 mice after ip administration at 200 mg/kg dose 2-4 days after tumor challenge
Type: toxicity, organism-based
Parameters: dose 200 mg/kg, route intraperitoneal
CONDITION SUMMARY: BDF1, mus sp., in vivo, read-out: Lethality
QUANTITY MEASURED: mortality

**Q:** Query: mortality; subject: O=c1[nH]cc(F)c(=O)[nH]1 [FLUOROURACIL]
**A:** 28%

###

ASSAY OVERVIEW: Drug related lethality is percent animals in treated groups dying prior to first tumor related death in untreated groups measured in BDF1 mice after ip administration at 100 mg/kg dose 3-6 days after tumor challenge
Type: toxicity, organism-based
Design: dose 100 mg/kg, route intraperitoneal
CONDITION SUMMARY: BDF1, mus sp., in vivo, read-out: Lethality
QUANTITY MEASURED: mortality (%)
API: value field is a number in %; no unit string.

**Q:** // lookup mortality for O=c1[nH]cc(F)c(=O)[nH]1
**A:** 14

###

ASSAY OVERVIEW: Drug related lethality is percent animals in treated groups dying prior to first tumor related death in untreated groups measured in BDF1 mice after po administration at 50 mg/kg dose
Assay type: toxicity, organism-based
Set-up: dose 50 mg/kg, route oral
CONDITION SUMMARY: BDF1, mus sp., in vivo, read-out: Lethality
QUANTITY MEASURED: mortality

**Q:** Using the record for N=C(N)Nc1nc(C(=O)Nc2nc3cc(F)ccc3s2)cs1 , report its mortality.
**A:** 2%

###

ASSAY OVERVIEW: Drug related lethality is percent animals in treated groups dying prior to first tumor related death in untreated groups measured in BDF1 mice after ip administration at 200 mg/kg dose
Format: toxicity, organism-based
Design: dose 200 mg/kg, route intraperitoneal
CONDITION SUMMARY: BDF1, mus sp., in vivo, read-out: Lethality
QUANTITY MEASURED: mortality (%)
Note: unit % is implicit; provide only the numeric part.

**Q:** Suppose we examine the compound N=C(N)Nc1nc(C(=O)Nc2nc3cc(F)ccc3s2)cs1 ; what mortality value has been reported?
**A:** 14.3

###

ASSAY OVERVIEW: Drug related lethality is percent animals in treated groups dying prior to first tumor related death in untreated groups measured in BDF1 mice after po administration at 100 mg/kg dose
Type: toxicity, organism-based
Parameters: dose 100 mg/kg, route oral
CONDITION SUMMARY: BDF1, mus sp., in vivo, read-out: Lethality
QUANTITY MEASURED: mortality

**Q:** Reported mortality for N=C(N)Nc1nc(C(=O)Nc2nc3cc(F)ccc3s2)cs1 : what is it?
**A:** 5.7%

###

ASSAY OVERVIEW: Drug related lethality is percent animals in treated groups dying prior to first tumor related death in untreated groups measured in BDF1 mice after iv administration at 18 mg/kg dose 3 days after tumor challenge
Type: toxicity, organism-based
Set-up: dose 18 mg/kg, route intravenous
CONDITION SUMMARY: BDF1, mus sp., in vivo, read-out: Lethality
QUANTITY MEASURED: mortality at 72 h
Reply with the number, then its unit.

**Q:** What measured mortality at 72 h goes with COc1cccc2c1C(=O)c1c(O)c3c(c(O)c1C2=O)C[C@@](O)(C(=O)CO)C[C@@H]3O[C@H]1C[C@H](N)[C@H](O)[C@H](C)O1 ?
**A:** 0%
